Target: HLA-B*51:01 (human)
Test: radioligand competition, purified MHC
ASSAY_ENDPOINT: IC50

>  <BINDER>
YLNSTNVTI (modifications not checked) [… (SEQ ID NO: 24)]

>  <ASSAY_ENDPOINT>
IC50

>  <VALUE_OBSERVED>
3.62 µM

$$$$
>  <BINDER>
ELPDEFVVV (modifications not checked) [… (SEQ ID NO: 12)]

>  <ASSAY_ENDPOINT>
IC50

>  <VALUE_OBSERVED>
> 70 µM

$$$$
>  <BINDER>
IRQEEVQEL (modifications not checked) [… (SEQ ID NO: 31)]

>  <ASSAY_ENDPOINT>
IC50

>  <VALUE_OBSERVED>
> 70 µM

$$$$
>  <BINDER>
MLLGSMLYM (modifications not checked) [… (SEQ ID NO: 4)]

>  <ASSAY_ENDPOINT>
IC50

>  <VALUE_OBSERVED>
7.87 µM

$$$$
>  <BINDER>
SEFSSLPSY (modifications not checked) [… (SEQ ID NO: 27)]

>  <ASSAY_ENDPOINT>
IC50

>  <VALUE_OBSERVED>
> 70 µM

$$$$
>  <BINDER>
QLTPTWRVY (modifications not checked) [… (SEQ ID NO: 38)]

>  <ASSAY_ENDPOINT>
IC50

>  <VALUE_OBSERVED>
> 70 µM

$$$$
>  <BINDER>
KNIDGYFKIY (modifications not checked) [… (SEQ ID NO: 36)]

>  <ASSAY_ENDPOINT>
IC50

>  <VALUE_OBSERVED>
> 70 µM

$$$$
>  <BINDER>
FAVDAAKAY (modifications not checked) [… (SEQ ID NO: 28)]

>  <ASSAY_ENDPOINT>
IC50

>  <VALUE_OBSERVED>
> 70 µM

$$$$
>  <BINDER>
STSAFVETV (modifications not checked) [… (SEQ ID NO: 19)]

>  <ASSAY_ENDPOINT>
IC50

>  <VALUE_OBSERVED>
> 70 µM

$$$$
